Source: patent US8106215B2

Reported pIC50 is given for each of the following molecules.
ASSAYED SYSTEM: human orexin-1 receptor (Homo sapiens)
Construct: expressed in transfected cells; host or cells: CHO cells (G418 selection)
Sequence (O43613 1-425): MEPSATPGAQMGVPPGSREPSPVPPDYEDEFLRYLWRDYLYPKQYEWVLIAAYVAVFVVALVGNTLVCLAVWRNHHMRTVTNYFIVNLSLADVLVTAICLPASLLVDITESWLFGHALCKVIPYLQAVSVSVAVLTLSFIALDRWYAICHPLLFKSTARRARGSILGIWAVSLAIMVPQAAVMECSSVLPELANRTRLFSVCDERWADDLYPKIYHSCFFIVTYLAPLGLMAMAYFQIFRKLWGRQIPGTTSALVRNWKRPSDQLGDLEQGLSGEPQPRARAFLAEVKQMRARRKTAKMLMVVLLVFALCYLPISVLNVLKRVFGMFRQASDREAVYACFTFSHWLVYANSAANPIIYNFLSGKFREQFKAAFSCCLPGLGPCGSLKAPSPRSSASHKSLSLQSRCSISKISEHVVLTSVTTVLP
PROTOCOL SUMMARY: Intracellular calcium measurements (FLIPR), orexin receptor antagonistic activity, OX1
Format: cell-based
CONDITION PARAMETERS: CHO cells expressing human orexin-1 receptor; 3 nM orexin-A; FLIPR Tetra, non-optimized conditions
When answering, recall that pIC50 equals minus log10 of the concentration in mol/L, and write that number alone.

INSERT INTO assay_data (molecule, result) VALUES
  ('Cc1nc2sccn2c1C(=O)NC[C@@H]1[C@H]2CCC[C@H]2CN1C(=O)c1nc(N)sc1-c1cccc(F)c1 [Example 70]', 7.77);

Query: Which value of pIC50 has been reported for COc1cccc(-c2sc(C)nc2C(=O)N2C[C@@H]3CCC[C@@H]3[C@H]2CNC(=O)c2c(C)nc3sccn23)c1 [Example 33] in the records?
Result: 8.10

Query: Which value of pIC50 has been reported for Cc1nc2sccn2c1C(=O)NC[C@@H]1[C@H]2CCC[C@H]2CN1C(=O)c1ccccc1-c1ccccc1 [Example 60] in the records?
Result: 7.80

Query: Which value of pIC50 has been reported for Cc1nc(C(=O)N2C[C@@H]3CC(C)C[C@@H]3[C@H]2CNC(=O)c2c(C)nc3sccn23)c(-c2ccc(F)c(F)c2)s1 (some centres unmarked) [Example 51] in the records?
Result: 7.48

Query: Which value of pIC50 has been reported for Cc1nc(C(=O)N2C[C@@H]3CC(C)C[C@@H]3[C@H]2CNC(=O)c2c(C)nc3sccn23)c(-c2cccc(C(F)(F)F)c2)s1 (some centres unmarked) [Example 36] in the records?
Result: 7.36

---

Reported pIC50 is given for each of the following molecules.
ASSAYED SYSTEM: human orexin-1 receptor (Homo sapiens, UniProt O43613)
Construct: expressed in transfected cells; host or cells: CHO cells (G418 selection)
PROTOCOL SUMMARY: Intracellular calcium measurements (FLIPR), orexin receptor antagonistic activity, OX1
Format: cell-based
CONDITION PARAMETERS: CHO cells expressing human orexin-1 receptor; 3 nM orexin-A; FLIPR Tetra, optimized conditions
When answering, recall that pIC50 equals minus log10 of the concentration in mol/L, and write that number alone.

Query: Which value of pIC50 has been reported for Cc1cccc(-c2sc(C)nc2C(=O)N2C[C@@H]3CC(F)(F)C[C@@H]3[C@H]2CNC(=O)c2cccc3ncsc23)c1 in the records?
Result: 8.22

Query: Which value of pIC50 has been reported for Cc1cccc(-c2sc(C)nc2C(=O)N2C[C@@H]3CC(F)(F)C[C@@H]3[C@H]2CNC(=O)c2c(C)nc3sccn23)c1 in the records?
Result: 8.15

Query: Which value of pIC50 has been reported for Cc1cccc(-c2sc(C)nc2C(=O)N2C[C@@H]3CC(F)(F)C[C@@H]3[C@H]2CNC(=O)c2cccc3c2CCO3)c1 in the records?
Result: 8.10
